# reported Bmax (MFI); entries follow
Biological target: T1, NaPi2b expressed on IGROV-1 cells (Homo sapiens, UniProt O95436)
T1 construct: IGROV-1 cells express endogenous NaPi2b at a high level; endogenous in cells; host or cells: IGROV-1
T1 sequence (O95436 1-690): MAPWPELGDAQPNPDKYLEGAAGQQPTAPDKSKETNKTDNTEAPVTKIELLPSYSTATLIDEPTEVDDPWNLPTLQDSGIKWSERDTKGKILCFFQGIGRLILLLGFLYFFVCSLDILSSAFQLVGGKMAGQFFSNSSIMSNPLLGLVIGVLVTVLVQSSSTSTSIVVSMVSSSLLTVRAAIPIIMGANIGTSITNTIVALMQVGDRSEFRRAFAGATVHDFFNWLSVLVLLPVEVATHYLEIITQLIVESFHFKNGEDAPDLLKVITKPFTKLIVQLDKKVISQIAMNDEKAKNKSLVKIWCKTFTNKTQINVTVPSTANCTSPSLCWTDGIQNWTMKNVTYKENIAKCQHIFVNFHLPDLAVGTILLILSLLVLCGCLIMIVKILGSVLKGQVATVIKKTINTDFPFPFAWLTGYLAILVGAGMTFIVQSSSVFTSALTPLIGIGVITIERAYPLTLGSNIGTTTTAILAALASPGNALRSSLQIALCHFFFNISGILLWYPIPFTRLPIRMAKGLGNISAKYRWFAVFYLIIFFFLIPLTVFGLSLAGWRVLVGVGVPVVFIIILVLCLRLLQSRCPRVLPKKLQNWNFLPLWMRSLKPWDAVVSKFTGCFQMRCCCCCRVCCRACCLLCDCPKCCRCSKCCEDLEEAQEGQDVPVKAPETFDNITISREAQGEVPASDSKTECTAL
Experiment: Cellular binding of bivalent antibodies to IGROV-1 cells by flow cytometry (Example 13)
Settings: IGROV-1, 24 hours at 4° C.; NB = no cellular binding

Molecule	Bmax (MFI)
v29450: humanized anti-NaPi2b IgG1/kappa antibody H3L3; VH SEQ ID NO:26, VL SEQ ID NO:30 (antibody, V domains shown, v29450, v29454, v29458 VH (H3); v29449, v29450, v29451, v29452 VL (L3)) VH: QVQLVQSGAEVKKPGASVKMSCKASGFTFTSYNVHWVRQAPGQGLEWIAAISPGNGDLSYAQKFQGRATLTVDTSTSTAYMELSSLRSEDTAVYYCARGRTGMGAVDYWGQGTLVTVSS VL: DVQMTQSPSSLSASVGDRVTITCRASQDVYSYLNWYQQKPGKAVKLLIYYTSRLQSGVPSRFSGSGSGTDYTLTISSLQPEDIATYYCQQYNIFPWTFGQGTKLEIK	43,809 MFI
v29458: humanized anti-NaPi2b IgG1/kappa antibody H3L1; VH SEQ ID NO:26, VL SEQ ID NO:28 (antibody, V domains shown, v29450, v29454, v29458 VH (H3); v29457, v29458, v29459, v29460 VL (L1)) VH: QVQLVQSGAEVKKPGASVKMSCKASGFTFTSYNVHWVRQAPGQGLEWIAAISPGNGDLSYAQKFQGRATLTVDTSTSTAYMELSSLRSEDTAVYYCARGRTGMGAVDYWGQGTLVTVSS VL: DIQMTQSPSSLSASVGDRVTITCRASQDVYSYLNWYQQKPGKAPKLLIYYTSRLQSGVPSRFSGSGSGTDFTLTISSLQPEDFATYYCQQYNIFPWTFGQGTKLEIK	40,793 MFI
v29451: humanized anti-NaPi2b IgG1/kappa antibody H2L3; VH SEQ ID NO:25, VL SEQ ID NO:30 (antibody, V domains shown, v29451, v29455, v29459 VH (H2); v29449, v29450, v29451, v29452 VL (L3)) VH: QVQLVQSGAEVKKPGASVKVSCKASGFTFTSYNVHWVRQAPGQGLEWIAAISPGNGDLSYAQKFQGRVTMTVDTSTSTVYMELSSLRSEDTAVYYCARGRTGMGAVDYWGQGTLVTVSS VL: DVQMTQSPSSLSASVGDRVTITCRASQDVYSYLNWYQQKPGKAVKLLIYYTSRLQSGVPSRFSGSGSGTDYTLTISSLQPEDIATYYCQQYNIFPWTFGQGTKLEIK	46,170 MFI

INPUT: Identify measured Bmax (MFI) corresponding to v29456: humanized anti-NaPi2b IgG1/kappa antibody H1L2; VH SEQ ID NO:24, VL SEQ ID NO:29 (antibody, V domains shown, v29452, v29456, v29460 VH (H1); v29453, v29454, v29455, v29456 VL (L2)) VH: QVQLVQSGAEVKKPGASVKVSCKASGFTFTSYNVHWVRQAPGQGLEWMGAISPGNGDLSYAQKFQGRVTMTRDTSTSTVYMELSSLRSEDTAVYYCARGRTGMGAVDYWGQGTLVTVSS VL: DVQMTQSPSSLSASVGDRVTITCRASQDVYSYLNWYQQKPGKAVKLLIYYTSRLQSGVPSRFSGSGSGTDYTLTISSLQPEDFATYYCQQYNIFPWTFGQGTKLEIK
OUTPUT: 40,867 MFI

INPUT: Identify measured Bmax (MFI) corresponding to v29457: humanized anti-NaPi2b IgG1/kappa antibody H4L1; VH SEQ ID NO:27, VL SEQ ID NO:28 (antibody, V domains shown, v29449, v29453, v29457 VH (H4); v29457, v29458, v29459, v29460 VL (L1)) VH: QVQLVQSGAEVKKPGASVKMSCKASGFTFTSYNVHWVRQAPGQGLEWIAAISPGNGDLSYAQKFQGRATLTVDRSTSTAYMELSSLRSEDTAVYYCARGRTGMGAVDYWGQGTLVTVSS VL: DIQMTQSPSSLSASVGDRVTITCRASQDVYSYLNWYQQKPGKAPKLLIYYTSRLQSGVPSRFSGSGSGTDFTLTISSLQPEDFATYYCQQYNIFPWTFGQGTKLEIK
OUTPUT: 44,539 MFI

INPUT: Identify measured Bmax (MFI) corresponding to v29452: humanized anti-NaPi2b IgG1/kappa antibody H1L3; VH SEQ ID NO:24, VL SEQ ID NO:30 (antibody, V domains shown, v29452, v29456, v29460 VH (H1); v29449, v29450, v29451, v29452 VL (L3)) VH: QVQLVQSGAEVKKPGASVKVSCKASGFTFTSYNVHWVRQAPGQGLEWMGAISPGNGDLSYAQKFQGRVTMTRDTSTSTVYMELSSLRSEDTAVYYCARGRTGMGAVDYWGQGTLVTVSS VL: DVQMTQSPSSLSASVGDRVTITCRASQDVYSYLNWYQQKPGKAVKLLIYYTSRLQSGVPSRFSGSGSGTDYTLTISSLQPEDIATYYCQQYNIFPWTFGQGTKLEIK
OUTPUT: 47,763 MFI

INPUT: Identify measured Bmax (MFI) corresponding to v29453: humanized anti-NaPi2b IgG1/kappa antibody H4L2; VH SEQ ID NO:27, VL SEQ ID NO:29 (antibody, V domains shown, v29449, v29453, v29457 VH (H4); v29453, v29454, v29455, v29456 VL (L2)) VH: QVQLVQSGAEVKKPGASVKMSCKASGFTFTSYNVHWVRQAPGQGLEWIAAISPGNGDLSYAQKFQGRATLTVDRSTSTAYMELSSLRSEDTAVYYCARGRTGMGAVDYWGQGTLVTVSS VL: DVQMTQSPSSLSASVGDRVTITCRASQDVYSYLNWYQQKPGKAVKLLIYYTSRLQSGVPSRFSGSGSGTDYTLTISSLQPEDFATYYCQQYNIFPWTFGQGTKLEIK
OUTPUT: 44,480 MFI
